Assay: in vitro
Conditions: human, 26 mg/cm^2
viability at 15 min listing for selected molecules.

CCOC(=O)CN1C(=O)/C(=C/c2ccc(OC)cc2)N(CC(=O)OCC)C1=O
≥ 50%

CCOC(=O)CN1C(=O)/C(=C/C=C/c2ccc(OC)cc2)N(CC(=O)OCC)C1=O has a reported viability at 15 min of ≥ 50%

---

Experiment: Episkin phototoxicity test (UVA 50 J/cm^2; MTT viability, Il-1α release)
Assay type: cell-based, human
Settings: human; 0.5 mM, UVA 50 J/cm^2; read-out: tissue viability after UVA exposure compared to non-irradiated epidermis
Measure Name: viability at 2 h, 0.5 mM

CN(C)CCCN1c2ccccc2Sc2ccc(Cl)cc21 [CPZ, Chlorpromazine, reference compound] has a reported viability at 2 h, 0.5 mM of ~40%

Entry source: paper PMC8949075
